target: phosphorylation levels of ERK1/2 in AsPC-1 (homozygous KRAS-G12D) cells (Homo sapiens, UniProt P01116, G12D); experiment: Cellular phospho-ERK assay in AsPC-1 cells (Alpha Screen), assay medium without fetal bovine serum; settings: phospho-ERK AlphaScreen, 18 h;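 also: signal taken as phospho-ERK over total ERK per well, both detected in one multiplex bead assay, EC50 from four-parameter logistic fit of dose-response curves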
Sequence (P01116 1-186 G12D): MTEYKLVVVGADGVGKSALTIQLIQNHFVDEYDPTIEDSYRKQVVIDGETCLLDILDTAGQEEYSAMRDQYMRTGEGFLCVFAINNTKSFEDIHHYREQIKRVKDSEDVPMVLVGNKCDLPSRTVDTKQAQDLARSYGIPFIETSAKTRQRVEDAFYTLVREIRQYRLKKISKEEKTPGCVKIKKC
pEC50: −log10 of the molar value. *1 amine or outer side, *2 acyl side, *3 side chain or, on linkers, in order; H or OH if unused. Where a SMILES comes first, the peptide text is derived from it. [ ]: non-standard residue; d: D form. X34 = O=C(C[C@@H](Cc1ccccc1)C(=O)[*:2])C12CC(CN[*:1])(C1)C2; Ala(pyrimidin-5-yl) = N[C@@H](Cc1cncnc1)C(=O)O; X39 = CN([C@@H](Cc1cccnc1F)C(=O)[*:2])[*:1]; Nle(5,5-F2) = CC(F)(F)CC[C@H](N)C(=O)O; Phe(2-F) = N[C@@H](Cc1ccccc1F)C(=O)O; NMe3Pal = CN[C@@H](Cc1cccnc1)C(=O)O; X1 = O=C(C12CC(CN[*:1])(C1)C2)[*:2]; Aha = [N-]=[N+]=NCC[C@H](N)C(=O)O; Ala(cPr) = N[C@@H](CC1CC1)C(=O)O; NMeF = CN[C@@H](Cc1ccccc1)C(=O)O; PhLac = O=C(O)[C@@H](O)Cc1ccccc1; 3Pal = N[C@@H](Cc1cccnc1)C(=O)O; Cba = N[C@@H](CC1CCC1)C(=O)O; hLeu = CC(C)CC[C@H](N)C(=O)O; NMeA = CN[C@@H](C)C(=O)O; Nle = CCCC[C@H](N)C(=O)O

{"columns": ["compound", "qual", "pEC50"],
 "data": [
  ["C[C@H]1C(=O)N[C@@H](Cc2cncnc2)C(=O)N[C@@H](CC2CC2)C(=O)N[C@@H](Cc2ccccc2F)C(=O)N[C@@H](CCC(C)(F)F)C(=O)N(C)[C@@H](Cc2ccccc2)C(=O)NCC23CC(C2)(C3)C(=O)C[C@@H](Cc2ccccc2)C(=O)N1C [compound 290] (cyclo([Ala(cPr)][Phe(2-F)][Nle(5,5-F2)][NMeF][X34][NMeA][Ala(pyrimidin-5-yl)]))", "=", 5.97],
  ["CC(C)CC[C@@H]1NC(=O)[C@H](Cc2ccccc2F)NC(=O)[C@H](CC2CC2)NC(=O)[C@H](Cc2cncnc2)NC(=O)[C@H](C)N(C)C(=O)[C@H](Cc2ccccc2)OC(=O)C23CC(CNC(=O)[C@H](Cc4cccnc4F)N(C)C1=O)(C2)C3 [compound 336] (cyclo([Ala(cPr)][Phe(2-F)][hLeu][X39][X1][PhLac][NMeA][Ala(pyrimidin-5-yl)]))", "=", 5.86],
  ["CCCC[C@@H]1NC(=O)[C@H](C(C)C)NC(=O)[C@H](CC2CCC2)NC(=O)[C@H](Cc2cccnc2)NC(=O)[C@H](CCN=[N+]=[N-])NC(=O)[C@H](Cc2ccccc2)NC(=O)C23CC(CNC(=O)[C@H](Cc4cccnc4)N(C)C1=O)(C2)C3 [compound 113] (cyclo(F[Aha][3Pal][Cba]V[Nle][NMe3Pal][X1]))", "<", 4.29]
]}
